Please provide measured IC50 for the entries that follow.
# target-or-system: MELK (Homo sapiens)
# Sequence (Q14680 whole entry, looked up): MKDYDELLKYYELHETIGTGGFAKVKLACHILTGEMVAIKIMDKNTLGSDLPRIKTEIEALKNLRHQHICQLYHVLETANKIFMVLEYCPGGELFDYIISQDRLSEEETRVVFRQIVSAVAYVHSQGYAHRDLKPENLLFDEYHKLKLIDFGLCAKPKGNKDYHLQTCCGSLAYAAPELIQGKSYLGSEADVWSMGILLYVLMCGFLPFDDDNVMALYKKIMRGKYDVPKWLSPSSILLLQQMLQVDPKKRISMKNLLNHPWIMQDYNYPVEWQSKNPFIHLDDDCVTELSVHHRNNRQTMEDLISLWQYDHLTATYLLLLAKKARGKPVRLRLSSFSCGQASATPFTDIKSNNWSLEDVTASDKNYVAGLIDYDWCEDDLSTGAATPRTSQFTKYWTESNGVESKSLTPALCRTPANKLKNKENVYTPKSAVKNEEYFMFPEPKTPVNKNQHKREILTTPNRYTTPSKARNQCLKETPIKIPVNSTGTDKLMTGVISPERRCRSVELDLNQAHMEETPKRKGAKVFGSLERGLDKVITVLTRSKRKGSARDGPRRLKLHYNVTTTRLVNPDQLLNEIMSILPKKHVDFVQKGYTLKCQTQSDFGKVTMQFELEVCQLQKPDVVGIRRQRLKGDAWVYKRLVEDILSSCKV
# test: Kinase assay: MELK activity, phosphorylation of FITC-labeled histone H3 peptide measured by IMAP fluorescence polarization
# Assay type: biochemical
# test-settings: 50 micro-M ATP, FITC-labeled histone H3 peptide substrate, IMAP fluorescence polarization; read-out: IC50 (μM) (kinase assay)
Respond with the bare value in µM.

Ask: Entry CC(C)C(=O)c1cnc2ccc(-c3cc(F)c(O)c(F)c3)cc2c1N[C@H]1CC[C@H](N)CC1 : reported IC50 = ?
Reply: 0.043

Ask: Any idea what its IC50 is? The compound is COc1cc(-c2ccc3ncc(C(C)=O)c(N[C@H]4CC[C@H](N)CC4)c3c2)cc(Cl)c1O
Reply: 0.0024

Ask: // query IC50 value for entry CN1CCN(C(=O)CNc2c(C(=O)C3CC3)cnc3ccc(-c4cc(F)c(O)c(Cl)c4)cc23)CC1
Reply: 0.025

Ask: Can you look up the measured IC50 of CCN(CC)[C@H]1CC[C@H](Nc2c(C(=O)C3CC3)cnc3ccc(-c4cc(Cl)c(O)c(OC)c4)cc23)CC1 for me?
Reply: 0.0031
